target.system: T1, Recombinant USP7-TRAF protein (human, UniProt Q93009 1-208)
T1 construct: also called USP7-TRAF domain
T1 sequence (Q93009 1-208): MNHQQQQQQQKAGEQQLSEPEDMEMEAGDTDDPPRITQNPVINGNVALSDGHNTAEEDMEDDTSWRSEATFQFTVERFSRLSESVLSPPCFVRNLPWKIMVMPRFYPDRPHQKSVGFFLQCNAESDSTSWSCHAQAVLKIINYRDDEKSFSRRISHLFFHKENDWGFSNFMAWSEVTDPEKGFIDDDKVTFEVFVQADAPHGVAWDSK
protocol.notes: SPR; Biacore T200; USP7-TRAF immobilised on a CM5 chip by amine coupling to about 8000 RU; gradient concentrations of peptides injected at 30 μL/min; running buffer 0.05% (v/v) Tween 20 in PBS
experimental.conditions: both partners purified
reported.metric: Kd (µM)
Answers are plain numbers, in µM.

// query Kd value for entry Ac-EVADEDNSEI-NH2 (also called peptide p2) [p2]
9.02
